The reported measurements were obtained from paper PMC2756588.

Tgt: Sho1, P40073
Sequence (P40073 287-367): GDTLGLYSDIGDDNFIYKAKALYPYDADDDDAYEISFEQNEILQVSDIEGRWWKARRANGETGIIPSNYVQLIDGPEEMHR
Assay Info: SPOT array
Test Parameters: median of control spots 1148
Quantity Name: SPOT intensity
Kindly provide the number alone.

Answered cases to consult:
QQNRPLPQLPNRNNR    1600
GRSRLFPHSPLGRSS    21
NGRRRPKFRVQLSGN    155
ATKSASPTLPTRRSR    132
HRRRRVFSIPSLKSI    123

Looking up `RVRKTHVPASKRPSG` , I see its SPOT intensity listed as 124

Looking up `ALFRLSFFFPLDPAY` , I see its SPOT intensity listed as 168
